Listing of entries alongside the reported normalized growth.
EXPERIMENTAL_DETAILS: chemical genetic growth profiling, strain panel (AID 1159580);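 note: tested at 20 µM; growth read once vehicle control cultures reached saturation at 30 °C; 1 = growth at the plate median or of vehicle wells; lower values mean less growth of the strain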
CONDITION_DETAILS: S. cerevisiae deletion strains, growth OD, locus YGR135W, strain pre9, active compounds read low
The campaign covered roughly 5,500 compounds. About 2,000 (36%) were called active. Inconclusive results (about 18%) are left out. This is one part of the list.

COMPOUND	MEAS_VALUE
CC(=O)OC1CCC23CC1(C)CCC2C(C)(C)CC3OC(C)=O (stereo not given)	1.02 (inactive)
COC(=O)C[C@H]1C(C)(C)[C@@H](OC(C)=O)[C@@H]2CC3=C4CC(=O)O[C@@H](c5ccoc5)[C@]4(C)CCC3[C@@]1(C)C2=O (stereo not given in full)	1.02 (inactive)
CC(C)N1C(=O)c2ccccc2NS1(=O)=O	1.01 (inactive)
CC(C)=CCC/C(C)=C/CO	0.988 (inactive)

Attention now turns to another entry.
Reported normalized growth, compound `Cc1c(NC(C)C)c(=O)n(-c2ccccc2)n1C` : ____ 0.983 (inactive)

---

Listing of entries alongside the reported normalized growth.
EXPERIMENTAL_DETAILS: chemical genetic growth profiling, strain panel (AID 1159580);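 note: tested at 20 µM; growth read once vehicle control cultures reached saturation at 30 °C; 1 = growth at the plate median or of vehicle wells; lower values mean less growth of the strain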
CONDITION_DETAILS: S. cerevisiae deletion strains, growth OD, locus YOR061W, strain CKA2, active compounds read low
Hit rate of the full screen: of about 5,500 compounds, about 2,000 (36%) were called active. Not shown: some 18% with an inconclusive outcome. The list shows a part of the results.
Number only, please.

Worked examples follow.
MOLECULE	MEAS_VALUE
CC(NC(C)(C)C)C(=O)c1cccc(Cl)c1 (stereo not drawn)	1.02
CC(C)OC(=O)Nc1cccc(Cl)c1	0.992
CN1CCCCC1c1ccc(-c2cccnc2)nc1 (stereo not drawn)	1.01
CNC(=O)Oc1cccc2c1OC(C)(C)C2	1
O=C(Nc1ccc(F)cc1F)c1cc(Cl)ccc1O	0.89
Cc1oc(C(C)(C)C)cc1-c1cc(NC(=O)c2ccccc2)n[nH]1	0.91
ClC1C(Cl)C(Cl)C(Cl)C(Cl)C1Cl (stereo not drawn)	0.948
Cc1ccc(O)c(C(CCN(C(C)C)C(C)C)c2ccccc2)c1 (stereo not drawn)	1.02

Reported normalized growth, molecule `COc1ccc(-c2c(OC)c3c(OC)c4c(cc3oc2=O)OC(C)(C)C=C4)cc1` : ____ 1.02

Further, for `COC(=O)c1cccc(NS(=O)(=O)c2ccc(Cl)c(Cl)c2)c1` ? 0.986

Further, for COC(=O)C[C@H]1C(C)(C)[C@H](O)[C@@H]2CC3=C4CC(O)O[C@@H](c5ccoc5)[C@]4(C)CCC3[C@@]1(C)C2=O (stereo partly drawn) ? 0.944

Further, for `CC(C)N=C(N)N=C(N)Nc1ccc(Cl)cc1` ? 1.01

Further, for `Cn1cc(Br)c(-c2cccc(NS(=O)(=O)c3ccc(Cl)cc3)c2)n1` ? 1

Further, for `COc1cc(OC)c2c(OC)c(-c3ccc4c(c3)OCO4)c(=O)oc2c1` ? 0.989

---

EXPERIMENTAL_DETAILS: chemical genetic growth profiling, strain panel (AID 1159580);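 note: tested at 20 µM; growth read once vehicle control cultures reached saturation at 30 °C; 1 = growth at the plate median or of vehicle wells; lower values mean less growth of the strain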
CONDITION_DETAILS: S. cerevisiae deletion strains, growth OD, locus YGR040W, strain KSS1, active compounds read low
Among all 5,500 compounds or so, about 2,000 (36%) were called active. Inconclusive results (about 18%) are left out. This is one part of the list.
ENDPOINT_NAME: normalized growth

MOLECULE	MEAS_VALUE
C=CCC1C(=O)N(S(=O)(=O)c2ccc(Cl)cc2)N=C1CCC (stereo not drawn)	0.97 (inactive)
CC(C)OC(=O)Nc1cc(Cl)cc(Cl)c1	0.838 (inactive)

Reported normalized growth, molecule `COc1ccc(OC)c2nc3c(nc12)C(=O)c1ccccc1-3` : ____ 0.973 (inactive)
